Target: Polyunsaturated fatty acid 5-lipoxygenase (Homo sapiens)
Test: Inhibition of 5-lipoxygenase in A23187-stimulated human polymorphonuclear leukocytes using arachidonic acid as substrate incubated 15 mins prior to substrate addition measured after 10 mins by HPLC analysis
Give measured IC50 for each item. Keep answers brief.

Enquiry: Recall and state the measured IC50 for CCC(Sc1nc(Cl)cc(Nc2nc(-c3ccc(Cl)cc3)cs2)n1)C(=O)O (stereo unspecified) .
Return: 3600 nM

Enquiry: Recall and state the measured IC50 for CCCCCCC(Sc1nc(Cl)cc(Nc2nc(-c3ccc4ccccc4c3)cs2)n1)C(=O)O (racemic) .
Return: 200 nM

Enquiry: Recall and state the measured IC50 for CCCCCCC(Sc1nc(Cl)cc(Nc2nc(-c3ccc4c(c3)CCCC4)cs2)n1)C(=O)O (stereo unspecified) .
Return: 400 nM

Enquiry: Recall and state the measured IC50 for CCCCCCC(Sc1nc(Cl)cc(Nc2nc(-c3ccc(Br)cc3)c(C)s2)n1)C(=O)O (stereo unspecified) .
Return: 200 nM

Enquiry: Recall and state the measured IC50 for CCCCC(Sc1nc(Cl)cc(Nc2nc(-c3ccc(Cl)cc3)cs2)n1)C(=O)O (stereo unspecified) .
Return: 900 nM

Enquiry: Recall and state the measured IC50 for O=C(O)C(Sc1nc(Cl)cc(Nc2nc(-c3ccc(Cl)cc3)cs2)n1)c1cccc2ccccc12 (stereo unspecified) .
Return: 400 nM

* * *

Biological target: Polyunsaturated fatty acid 5-lipoxygenase (Homo sapiens, UniProt P09917)
Sequence (P09917 whole entry): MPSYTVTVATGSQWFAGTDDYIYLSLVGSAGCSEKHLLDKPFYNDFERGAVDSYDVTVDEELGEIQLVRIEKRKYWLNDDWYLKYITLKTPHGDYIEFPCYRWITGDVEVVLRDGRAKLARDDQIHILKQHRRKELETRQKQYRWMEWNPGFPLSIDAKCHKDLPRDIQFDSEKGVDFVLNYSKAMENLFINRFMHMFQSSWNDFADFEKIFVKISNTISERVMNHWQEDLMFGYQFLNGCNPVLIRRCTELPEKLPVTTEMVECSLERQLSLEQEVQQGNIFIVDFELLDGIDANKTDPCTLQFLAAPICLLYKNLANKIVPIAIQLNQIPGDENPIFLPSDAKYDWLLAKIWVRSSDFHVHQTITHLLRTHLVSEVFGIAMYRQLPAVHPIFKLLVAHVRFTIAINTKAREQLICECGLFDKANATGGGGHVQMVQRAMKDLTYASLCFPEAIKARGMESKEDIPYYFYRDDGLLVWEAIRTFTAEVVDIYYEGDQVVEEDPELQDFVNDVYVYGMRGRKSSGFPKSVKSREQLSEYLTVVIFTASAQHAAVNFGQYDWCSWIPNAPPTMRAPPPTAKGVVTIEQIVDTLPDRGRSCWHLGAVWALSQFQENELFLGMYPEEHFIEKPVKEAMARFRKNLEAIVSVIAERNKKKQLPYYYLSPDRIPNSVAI
Assay: Inhibition of human recombinant 5-lipoxygenase expressed in Escherichia coli BL21 using arachidonic acid as substrate incubated 5 to 10 mins prior to substrate addition measured after 10 mins by HPLC analysis
Give measured pIC50 for each item. Keep answers brief.
Just so you know, pIC50 here is -log10 of the concentration in molar units; reply with that number alone.

Enquiry: Recall and state the measured pIC50 for `CCCCCC[C@H](Sc1nc(Cl)cc(Nc2nc(-c3ccc4ccccc4c3)cs2)n1)C(=O)O` .
Return: 6.52

Enquiry: Recall and state the measured pIC50 for CCCCCCC(Sc1nc(Cl)cc(Nc2nc(-c3ccc([N+](=O)[O-])cc3)cs2)n1)C(=O)O (centres undefined) .
Return: 5.74

Enquiry: Recall and state the measured pIC50 for CCCCCCC(Sc1nc(Cl)cc(Nc2nc(-c3ccc(OC)cc3)cs2)n1)C(=O)O (centres undefined) .
Return: 5.74

Enquiry: Recall and state the measured pIC50 for CCCCCCC(Sc1nc(Cl)cc(Nc2nc(-c3ccc(Cl)cc3)cs2)n1)C(=O)O (centres undefined) .
Return: 6.10

Enquiry: Recall and state the measured pIC50 for CCCCCCC(Sc1nc(Cl)cc(Nc2nc(-c3ccc(C(F)(F)F)cc3)cs2)n1)C(=O)O (centres undefined) .
Return: 5.92

Enquiry: Recall and state the measured pIC50 for CCCCCCC(Sc1nc(Cl)cc(Nc2nc3c(s2)CCc2cc(OC)ccc2-3)n1)C(=O)O (centres undefined) .
Return: 5.72

Enquiry: Recall and state the measured pIC50 for CCC(Sc1nc(Cl)cc(Nc2nc(-c3ccc4ccccc4c3)cs2)n1)C(=O)O (centres undefined) .
Return: 5.70

Enquiry: Recall and state the measured pIC50 for CCCCCCC(Sc1nc(Cl)cc(Nc2nc(-c3ccc(Br)cc3)c(C)s2)n1)C(=O)O (centres undefined) .
Return: 5.80

* * *

Assay: Inhibition of reactive oxygen species generation in fMLP-stimulated human polymorphonuclear leukocytes incubated for 15 mins prior to fMLP-challenge by fluorescence assay
Type: functional
endpoint-label: pIC50
Just so you know, pIC50 here is -log10 of the concentration in molar units; reply with that number alone.

Enquiry: Recall and state the measured pIC50 for CCCCCCC(Sc1nc(Cl)cc(Nc2nc(-c3ccc4ccccc4c3)cs2)n1)C(=O)O (racemic) .
Return: 5.52

Hey, just so you know, these numbers are from ChEMBL document CHEMBL3091331.
